targetDesc: UniProt P08684
Sequence (P08684 whole entry): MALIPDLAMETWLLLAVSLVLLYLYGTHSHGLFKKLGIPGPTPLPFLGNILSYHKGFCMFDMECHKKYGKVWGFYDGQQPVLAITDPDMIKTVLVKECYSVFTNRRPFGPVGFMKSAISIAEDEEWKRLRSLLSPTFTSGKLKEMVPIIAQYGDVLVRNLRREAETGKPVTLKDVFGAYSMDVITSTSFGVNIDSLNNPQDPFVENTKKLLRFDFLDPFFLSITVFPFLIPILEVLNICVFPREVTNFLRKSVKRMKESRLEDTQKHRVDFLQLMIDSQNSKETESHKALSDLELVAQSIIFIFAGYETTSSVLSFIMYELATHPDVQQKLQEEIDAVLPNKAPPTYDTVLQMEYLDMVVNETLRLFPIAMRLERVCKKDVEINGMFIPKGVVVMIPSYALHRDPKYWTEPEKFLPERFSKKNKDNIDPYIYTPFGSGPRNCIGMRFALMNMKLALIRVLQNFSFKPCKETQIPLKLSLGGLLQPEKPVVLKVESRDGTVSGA
testMethodNotes: CYP inhibition in human liver microsomes, CYP3A4 (midazolam)
Assay type: in vitro ADME
Design: incubated with human liver microsomes; tissue Eurofins ITEMG232; host or cells: human liver microsomes
testConditions: probe midazolam, substrate midazolam, read-out: CYP3A4 midazolam Inh %
outcomeMeasure: inhibition at 10 µM (%)
Answers are plain numbers, in %.

Look over these answered cases.
Data request: Supply measured inhibition at 10 µM of Cc1nccn1Cc1ccc(-c2cc(CC(C)C)sc2S(=O)(=O)NC(=O)NCc2cccs2)cc1F.O=C(O)C(F)(F)F [Example 35, trifluoroacetic acid] in your reply.
Data returned: 26

Data request: Supply measured inhibition at 10 µM of CCc1nccn1Cc1ccc(-c2cc(CC(C)C)sc2S(=O)(=O)NC(=O)NCc2ccccc2)cc1 [Example 6] in your reply.
Data returned: 28.5

Data request: Supply measured inhibition at 10 µM of Cc1nccn1Cc1ccc(-c2cc(CC(C)C)sc2S(=O)(=O)NC(=O)NCC(C)C)cc1F.O=C(O)C(F)(F)F [Example 39, trifluoroacetic acid] in your reply.
Data returned: 18

Data request: Supply measured inhibition at 10 µM of Cc1nccn1Cc1ccc(-c2cc(CC(C)C)sc2S(=O)(=O)NC(=O)N(C)Cc2ccccn2)cc1F [Example 17] in your reply.
Data returned: 65

Data request: Supply measured inhibition at 10 µM of Cc1nccn1Cc1ccc(-c2cc(CC(C)C)sc2S(=O)(=O)NC(=O)NCCCC(F)(F)F)cc1F [Example 18] in your reply.
Data returned: 50

Value sought for every listed compound: inhibition at 10 µM.
1. CCCNC(=O)NS(=O)(=O)c1sc(CC(C)C)cc1-c1ccc(Cn2ccnc2CC)c(F)c1.O=C(O)C(F)(F)F [Example 33, trifluoroacetic acid]
2. CCc1nccn1Cc1ccc(-c2cc(CC(C)C)sc2S(=O)(=O)NC(=O)NCCOC)cc1 [Example 7]
3. CCc1nccn1Cc1ccc(-c2cc(CC(C)C)sc2S(=O)(=O)NC(=O)NCc2ccccn2)cc1 [Example 9]
4. Cc1nccn1Cc1ccc(-c2cc(CC(C)C)sc2S(=O)(=O)NC(=O)NCCc2c[nH]cn2)cc1F [Example 16]
5. Cc1nccn1Cc1ccc(-c2cc(CC(C)C)sc2S(=O)(=O)NC(=O)NCCC(F)(F)F)cc1F [Example 14]
6. CCc1nccn1Cc1ccc(-c2cc(CC(C)C)sc2S(=O)(=O)NC(=O)NCc2ccc(F)cc2)cc1F.O=C(O)C(F)(F)F [Example 32, trifluoroacetic acid]
7. Cc1cn(Cc2ccc(-c3cc(CC(C)C)sc3S(=O)(=O)NC(=O)NCCC(F)(F)F)cc2)c(C)n1 [Example 8]
8. Cc1nccn1Cc1ccc(-c2cc(CC(C)C)sc2S(=O)(=O)NC(=O)NCc2ccc(F)c(F)c2)cc1F.O=C(O)C(F)(F)F [Example 34, trifluoroacetic acid]

Data returned:
1. -37
2. 10.1
3. -19
4. 91
5. 30
6. 35
7. 17.5
8. 74

====

targetDesc: CYP2D6 (Homo sapiens)
Construct: incubated with human liver microsomes; tissue Eurofins ITEMG232; host or cells: human liver microsomes
Sequence (P10635 whole entry): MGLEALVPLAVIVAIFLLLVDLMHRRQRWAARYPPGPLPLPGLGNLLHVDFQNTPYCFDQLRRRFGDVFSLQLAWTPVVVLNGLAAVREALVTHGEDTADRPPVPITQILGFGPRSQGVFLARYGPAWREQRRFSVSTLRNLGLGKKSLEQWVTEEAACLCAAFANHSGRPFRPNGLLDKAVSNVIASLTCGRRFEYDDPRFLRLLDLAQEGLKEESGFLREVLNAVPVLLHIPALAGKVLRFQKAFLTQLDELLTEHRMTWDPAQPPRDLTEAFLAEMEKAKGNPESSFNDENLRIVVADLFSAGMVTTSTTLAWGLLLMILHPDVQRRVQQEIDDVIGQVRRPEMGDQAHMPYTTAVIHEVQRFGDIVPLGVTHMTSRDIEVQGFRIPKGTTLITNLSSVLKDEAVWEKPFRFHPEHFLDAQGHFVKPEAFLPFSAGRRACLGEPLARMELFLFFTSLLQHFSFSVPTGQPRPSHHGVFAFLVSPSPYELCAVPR
testMethodNotes: CYP inhibition in human liver microsomes, CYP2D6
Format: in vitro ADME
testConditions: probe dextromethorphan, substrate dextromethorphan, read-out: CYP2D6 Inh %
I'd appreciate it if you could supply inhibition at 10 µM values for the items below.

Look over these answered cases.
Data request: Supply measured inhibition at 10 µM of Cc1nccn1Cc1ccc(-c2cc(CC(C)C)sc2S(=O)(=O)NC(=O)N(C)Cc2ccccn2)cc1F in your reply.
Data returned: 22%

Data request: Supply measured inhibition at 10 µM of Cc1nccn1Cc1ccc(-c2cc(CC(C)C)sc2S(=O)(=O)NC(=O)NCC(C)C)cc1F.O=C(O)C(F)(F)F in your reply.
Data returned: 10%

Data request: Supply measured inhibition at 10 µM of Cc1nccn1Cc1ccc(-c2cc(CC(C)C)sc2S(=O)(=O)NC(=O)NCc2ccccc2)cc1 in your reply.
Data returned: 14.3%

Value sought for every listed compound: inhibition at 10 µM.
1. Cc1nccn1Cc1ccc(-c2cc(CC(C)C)sc2S(=O)(=O)NC(=O)NCCC(F)(F)F)cc1F
2. Cc1nccn1Cc1ccc(-c2cc(CC(C)C)sc2S(=O)(=O)NC(=O)NCc2nccn2C)cc1F
3. CCc1nccn1Cc1ccc(-c2cc(CC(C)C)sc2S(=O)(=O)NC(=O)NCc2ccccc2)cc1
4. CCc1nccn1Cc1ccc(-c2cc(CC(C)C)sc2S(=O)(=O)NC(=O)NCc2ccccn2)cc1

Data returned:
1: 30%; 2: 53%; 3: 27.3%; 4: 24%

Just for reference, patent US12435072B2 is where these values come from.
